The values you see were collected from patent EP3319959B1.

target: HDAC1 (Homo sapiens, UniProt Q13547); assay: Reporter displacement assay (HDAC1); assay type: binding
Sequence (Q13547 whole entry): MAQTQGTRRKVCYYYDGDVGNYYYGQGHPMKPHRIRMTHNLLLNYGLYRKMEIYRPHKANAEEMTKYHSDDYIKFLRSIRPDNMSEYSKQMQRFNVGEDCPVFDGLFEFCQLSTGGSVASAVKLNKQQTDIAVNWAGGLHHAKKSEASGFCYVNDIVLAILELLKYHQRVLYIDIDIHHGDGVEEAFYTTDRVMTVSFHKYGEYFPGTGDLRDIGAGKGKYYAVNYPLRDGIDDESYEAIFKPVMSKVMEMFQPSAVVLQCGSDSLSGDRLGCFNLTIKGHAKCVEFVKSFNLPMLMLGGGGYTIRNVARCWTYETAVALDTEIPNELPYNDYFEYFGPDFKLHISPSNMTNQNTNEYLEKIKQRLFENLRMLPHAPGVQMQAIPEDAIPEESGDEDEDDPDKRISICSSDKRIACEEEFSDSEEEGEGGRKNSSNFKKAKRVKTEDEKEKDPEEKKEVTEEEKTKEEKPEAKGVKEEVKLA
Readout Label: residence time (min)

Worked set:
- Chemical String: "Nc1cnc(-c2ccc(F)cc2)cc1NC(=O)N1CCCC1"
  Result Units: "min"
  Result Number: 851
- Chemical String: "Nc1ccc(-c2ccc(F)cc2)c(F)c1NC(=O)N1Cc2nccnc2C1"
  Result Units: "min"
  Result Number: 350
- Chemical String: "Nc1cc(F)c(-c2ccc(F)cc2)cc1NC(=O)N1Cc2nccnc2C1"
  Result Units: "min"
  Result Number: 126
- Chemical String: "Nc1ccc(-c2ccc(F)cc2)nc1NC(=O)C1CCOCC1"
  Result Units: "min"
  Result Number: 14

[P] Nc1ccc(-c2ccc(F)cc2)c(F)c1NC(=O)C1CCOCC1
[Q] Nc1cnc(-c2ccncc2)cc1NC(=O)N1CCCC1
Query block: I'm curious, which of these has a smaller residence time number: P or Q ? Lab note: record the label of whichever item you select.
Result block: P
(P: 69 min, Q: 401 min)
